# reported CTG-3D luminescence at 96 h; entries follow
# System: HCI-001 (organoid from a triple-negative breast cancer xenograft)
# measurementProtocol: CTG-3D luminescence at 96 h relative to day-0 seeding control (ratio to day 0); higher = more growth / less cytotoxicity; PDxO 3D drug screen, 96 h, CTG-3D normalised to day-0 seeding control.
# cond: 12.5 pM; days in culture: 346
measure: CTG-3D luminescence at 96 h

# compound, measure, val
measured = [
    ("CCc1c2c(nc3ccc(O)cc13)-c1cc3c(c(=O)n1C2)COC(=O)[C@]3(O)CC [SN-38]", "CTG-3D luminescence at 96 h", 1.26),
    ("NC(=O)c1cccc2cn(-c3ccc([C@@H]4CCCNC4)cc3)nc12 [niraparib]", "CTG-3D luminescence at 96 h", 1.69),
    ("C[C@@H]1COCCN1c1cc(C2([S@](C)(=N)=O)CC2)nc(-c2cc[nH]c3nccc2-3)n1 [ceralasertib]", "CTG-3D luminescence at 96 h", 1.56),
    ("C[C@]12CC[C@@H]3c4ccc(O)cc4C[C@@H](CCCCCCCCC[S+]([O-])CCCC(F)(F)C(F)(F)F)[C@H]3[C@@H]1CC[C@@H]2O (some centres not stated) [fulvestrant]", "CTG-3D luminescence at 96 h", 1.34),
    ("C=CC(=O)N1CCC[C@@H](n2nc(-c3ccc(Oc4ccccc4)cc3)c3c(N)ncnc32)C1 [ibrutinib]", "CTG-3D luminescence at 96 h", 1.37),
    ("Nc1ccn([C@@H]2O[C@H](CO)[C@@H](O)C2(F)F)c(=O)n1 [gemcitabine]", "CTG-3D luminescence at 96 h", 1.31),
    ("CC(C)(C(=O)NCC(F)(F)C(F)(F)F)C(=O)N[C@@H]1C(=O)Nc2ccccc2-c2ccccc21", "CTG-3D luminescence at 96 h", 1.54),
    ("CN(Cc1cnc2nc(N)nc(N)c2n1)c1ccc(C(=O)N[C@@H](CCC(=O)O)C(=O)O)cc1 [methotrexate]", "CTG-3D luminescence at 96 h", 1.53),
    ("COc1cccc2c1C(=O)c1c(O)c3c(c(O)c1C2=O)C[C@@](O)(C(=O)CO)C[C@@H]3O[C@H]1C[C@H](N)[C@H](O)[C@H](C)O1 [doxorubicin]", "CTG-3D luminescence at 96 h", 1.4),
    ("C=CCn1c(=O)c2cnc(Nc3ccc(N4CCN(C)CC4)cc3)nc2n1-c1cccc(C(C)(C)O)n1 [adavosertib]", "CTG-3D luminescence at 96 h", 1.44),
    ("O=C(O)C1(C(=O)O)CCC1.[NH2-].[NH2-].[Pt+2] [carboplatin]", "CTG-3D luminescence at 96 h", 1.42),
    ("NC1(C(=O)N[C@@H](CCO)c2ccc(Cl)cc2)CCN(c2nc[nH]c3nccc2-3)CC1 [capivasertib]", "CTG-3D luminescence at 96 h", 1.49),
]
